# log10 of CLint scaled at 5 μM annotations
# ASSAY_INFO: Compound stability in human liver microsomes
# Type: in vitro ADME
# CONDITION_SET: human liver microsomes; in vivo CLint extrapolated
REPORTED_METRIC: log10 of CLint scaled at 5 μM (log10 of the value in mL/min/kg)

{"MOLECULE": "CC[C@H](Nc1ncnc(N)c1-c1nnc(C)o1)c1nc2cccc(C)c2c(=O)n1-c1ccccc1C", "REPORTED_METRIC": "log10 of CLint scaled at 5 μM", "MEASURED": 2.52}
{"MOLECULE": "CC[C@H](Nc1ncnc(N)c1-c1nc(C)no1)c1nc2cccc(Cl)c2c(=O)n1-c1ccccc1", "REPORTED_METRIC": "log10 of CLint scaled at 5 μM", "MEASURED": 1.68}
{"MOLECULE": "CC(C)c1noc(-c2c(N)ncnc2N[C@@H](C)c2nc3cccc(Cl)c3c(=O)n2C2CC2)n1", "REPORTED_METRIC": "log10 of CLint scaled at 5 μM", "MEASURED": 1.98}
{"MOLECULE": "C[C@H](Nc1ncnc(N)c1-c1ncn(C)n1)c1nc2cccc(Cl)c2c(=O)n1C1CC1", "REPORTED_METRIC": "log10 of CLint scaled at 5 μM", "MEASURED": 2.11}
{"MOLECULE": "CC[C@H](Nc1ncnc(N)c1-c1nnc(C)o1)c1nc2cccc(F)c2c(=O)n1C1CC1", "REPORTED_METRIC": "log10 of CLint scaled at 5 μM", "MEASURED": 1.22}
{"MOLECULE": "CC[C@H](Nc1ncnc(N)c1-c1noc(C)n1)c1nc2cccc(C)c2c(=O)n1C1CC1", "REPORTED_METRIC": "log10 of CLint scaled at 5 μM", "MEASURED": 2.10}
{"MOLECULE": "CC[C@H](Nc1ncnc(N)c1-c1noc(C)n1)c1nc2cccc(F)c2c(=O)n1C1CC1", "REPORTED_METRIC": "log10 of CLint scaled at 5 μM", "MEASURED": 2.03}
{"MOLECULE": "CC[C@H](Nc1ncnc(N)c1-c1nc(C)co1)c1nc2cccc(C)c2c(=O)n1-c1ccccc1C", "REPORTED_METRIC": "log10 of CLint scaled at 5 μM", "MEASURED": 3.11}
{"MOLECULE": "CC[C@H](Nc1ncnc(N)c1-c1ccccn1)c1nc2cccc(Cl)c2c(=O)n1C1CC1", "REPORTED_METRIC": "log10 of CLint scaled at 5 μM", "MEASURED": 1.35}
{"MOLECULE": "CC[C@H](Nc1ncnc(N)c1-c1ncn(C)n1)c1nc2cccc(Cl)c2c(=O)n1-c1ccc(F)cc1", "REPORTED_METRIC": "log10 of CLint scaled at 5 μM", "MEASURED": 2.18}
{"MOLECULE": "CC[C@H](Nc1ncnc(N)c1-c1nc(C)no1)c1nc2cccc(F)c2c(=O)n1-c1ccccc1", "REPORTED_METRIC": "log10 of CLint scaled at 5 μM", "MEASURED": 1.40}
{"MOLECULE": "CC[C@H](Nc1ncnc(N)c1-c1noc(C)n1)c1nc2cccc(C)c2c(=O)n1-c1ccccc1C", "REPORTED_METRIC": "log10 of CLint scaled at 5 μM", "MEASURED": 2.14}
{"MOLECULE": "CC[C@H](Nc1ncnc(N)c1-c1ncn(C)n1)c1nc2cccc(Cl)c2c(=O)n1-c1ccccc1", "REPORTED_METRIC": "log10 of CLint scaled at 5 μM", "MEASURED": 2.00}
{"MOLECULE": "CC[C@H](Nc1ncnc(N)c1-c1nnc(C)o1)c1nc2cccc(C)c2c(=O)n1C1CC1", "REPORTED_METRIC": "log10 of CLint scaled at 5 μM", "MEASURED": 2.40}
